Reference source for all entries: ChEMBL document CHEMBL3885881

# Organism: Rattus norvegicus
# assay.details: DrugMatrix - Regimen: Daily Repeat
# Assay type: toxicity, organism-based, Sprague-Dawley
# Parameters: regimen Daily Repeat, gender Male, age 6-8 weeks
# reported.conditions: in vivo, iv, 0 mg/kg, 120 h, tissue Blood, dose level Control, time 5 day, vehicle 100 % SALINE
Starred links: 1 amine or outer side, 2 acyl side, 3 side chain; linkers in the order of their positions; H or OH if unused. Positions of bridges follow the written chain, without caps; N, C: chain ends. Non-standard residues stand in square brackets, D forms with d. Residues, ends and D or L forms follow the SMILES beside them. Chains are numbered I, II in the order given. Actinocin(9to1) = Cc1c2oc3c(C)ccc(C(=O)[*:1])c3nc-2c(C(=O)[*:2])c(N)c1=O; NMeV = CN[C@H](C(=O)O)C(C)C; Sar = CNCC(=O)O
Listing of recorded ABSOLUTE LYMPHOCYTE by entry.
Output spec: scalar in CELLS/uL, unitless text.

| molecule | ABSOLUTE LYMPHOCYTE / CELLS/uL |
| --- | --- |
| CC[C@]1(O)C[C@H]2CN(CCc3c([nH]c4ccccc34)[C@@](C(=O)OC)(c3cc4c(cc3OC)N(C=O)[C@H]3[C@@](O)(C(=O)OC)[C@H](OC(C)=O)[C@]5(CC)C=CCN6CC[C@]43[C@@H]65)C2)C1 | 6333.5 |

Query: Item under review: Cc1ccc(N(CC2=NCCN2)c2cccc(O)c2)cc1 . Reported ABSOLUTE LYMPHOCYTE?
Response: 12184

Query: Would you kindly repeat that for COc1cc2c3cc1Oc1cc(ccc1O)C[C@@H]1c4c(cc(OC)c(O)c4Oc4ccc(cc4)C[C@@H]3N(C)CC2)CC[N+]1(C)C.[Cl-] ?
Response: 12267.5

Query: Would you kindly repeat that for Cc1c2oc3c(C)ccc(C(=O)N[C@@H]4C(=O)N[C@H](C(C)C)C(=O)N5CCC[C@H]5C(=O)N(C)CC(=O)N(C)[C@@H](C(C)C)C(=O)O[C@@H]4C)c3nc-2c(C(=O)N[C@@H]2C(=O)N[C@H](C(C)C)C(=O)N3CCC[C@H]3C(=O)N(C)CC(=O)N(C)[C@@H](C(C)C)C(=O)O[C@@H]2C)c(N)c1=O [DACTINOMYCIN] (I: T[dV]P[Sar][NMeV] / II: T[dV]P[Sar][NMeV]; ester I:1-I:C, II:1-II:C; linker I:N-II:N via Actinocin(9to1)) ?
Response: 11832.83

====

# Species on record: Rattus norvegicus
# assay.details: DrugMatrix - Regimen: Daily Repeat
# Format: toxicity, organism-based, Sprague-Dawley
# Design: regimen Daily Repeat, gender Male, age 6-8 weeks
# reported.conditions: in vivo, po, 0 mg/kg, 72 h, tissue Plasma, route oral GAVAGE, dose level Control, time 3 day, vehicle .5 % CMC
quantity.name: GLUCOSE (mg/dL)
Output spec: scalar in mg/dL, unitless text.

Recorded results for 4 compounds are shown here.
| compound | quantity.name | endpoint.unit | result.number |
| --- | --- | --- | --- |
| CCCCc1oc2ccccc2c1C(=O)c1cc(I)c(OCCN(CC)CC)c(I)c1 | GLUCOSE | mg/dL | 192.67 |
| ClC(Cl)Br | GLUCOSE | mg/dL | 141.67 |
| CC(C)(C)NC(=O)[C@@H]1C[C@@H]2CCCC[C@@H]2CN1C[C@@H](O)[C@H](Cc1ccccc1)NC(=O)[C@H](CC(N)=O)NC(=O)c1ccc2ccccc2n1 | GLUCOSE | mg/dL | 171.33 |
| C1CCC(C(CC2CCCCN2)C2CCCCC2)CC1 (centres undefined) | GLUCOSE | mg/dL | 173.67 |

Turning now to a further record.
Query: Item under review: Cc1nc2n(c(=O)c1CCN1CCC(c3noc4cc(F)ccc34)CC1)CCCC2 . Reported GLUCOSE?
Response: 192.67
